target_desc: T1, Biotin-labeled N2 peptide (also: biotin label, position not given here)
T1 construct: also called immobilized N2
T1 peptide: LMKNMDPLNDNV
assay: SPR (BIACORE X100), biotin-N2 peptide on NeutrAvidin chip, antibody in solution; kd/ka (monovalent)
Source text: The remaining sequences represent the germline sequences with the highest homology that encode productive antibody. All of the humanized sequences maintain the murine 21G6 CDR regions which are shown inside the boxes in FIG. 1. […] The antibody containing supernatants were collected and analyzed for binding to the N2 peptide by ELISA and BIACORE™ X100 system. […]
Ends that are not written are not given here.
recorded_metric: Kd (nM)

• H3-21G6 / L2-21G6 (Table 2, constant region not stated) (antibody, V domains shown, human kappa light chain; also called H3/L2) VH: QVQLVQSGAEVKKPGSSVKVSCKASGYTFTSYYMYWVRQAPGQGLEWIGGINPSNGGTNFNEKFKSKATITVDKSTSTAYMELSSLRSEDTAVYYCTRWGYDREWFAYWGQGTLVTVSS VL: DIVMTQSPLSLPVTPGEPASISCRSSKSLLHSNGNTYLYWFLQKPGQSPQLLIYRMSNLASGVPDRFSGSGSGTDFTLKISRVEAEDVGVYYCMQHLEYPFTFGQGTKLEIKR = 640
• H2-21G6 / L1-21G6 (Table 2, constant region not stated) (antibody, V domains shown, human kappa light chain; also called H2/L1) VH: QVQLVQSGAEVKKPGASVKVSCKASGYTFTSYYMYWVRQAPGQGLEWIGGINPSNGGTNFNEKFKSKATMTVDKSTSTAYMELRSLRSDDSAVYYCTRWGYDREWFAYWGQGTLVTVSS VL: DIVMTQSPATLSVSPGERATISCRSSKSLLHSNGNTYLYWFQQKPGQPPKVLIYRMSNLASGVPARFSGSGSGTDFTLTISSVEPEDFATYYCMQHLEYPFTFGGGTKLEIKR = 660
• H3-21G6 / L3-21G6 (Table 2, constant region not stated) (antibody, V domains shown, human kappa light chain; also called H3/L3) VH: QVQLVQSGAEVKKPGSSVKVSCKASGYTFTSYYMYWVRQAPGQGLEWIGGINPSNGGTNFNEKFKSKATITVDKSTSTAYMELSSLRSEDTAVYYCTRWGYDREWFAYWGQGTLVTVSS VL: DIVMTQTPLSLSYTPGQPASISCRSSKSLLHSNGNTYLYWFLQKPGQSPQLLIYRMSNLASGVPDRFSGSGSGTDFTLKISRVEAEDVGVYYCMQHLEYPFTFGQGTKLEIKR = 900
• H2-21G6 / L3-21G6 (Table 2, constant region not stated) (antibody, V domains shown, human kappa light chain; also called H2/L3) VH: QVQLVQSGAEVKKPGASVKVSCKASGYTFTSYYMYWVRQAPGQGLEWIGGINPSNGGTNFNEKFKSKATMTVDKSTSTAYMELRSLRSDDSAVYYCTRWGYDREWFAYWGQGTLVTVSS VL: DIVMTQTPLSLSYTPGQPASISCRSSKSLLHSNGNTYLYWFLQKPGQSPQLLIYRMSNLASGVPDRFSGSGSGTDFTLKISRVEAEDVGVYYCMQHLEYPFTFGQGTKLEIKR = 140
• H3-21G6 / L1-21G6 (Table 2, constant region not stated) (antibody, V domains shown, human kappa light chain; also called H3/L1) VH: QVQLVQSGAEVKKPGSSVKVSCKASGYTFTSYYMYWVRQAPGQGLEWIGGINPSNGGTNFNEKFKSKATITVDKSTSTAYMELSSLRSEDTAVYYCTRWGYDREWFAYWGQGTLVTVSS VL: DIVMTQSPATLSVSPGERATISCRSSKSLLHSNGNTYLYWFQQKPGQPPKVLIYRMSNLASGVPARFSGSGSGTDFTLTISSVEPEDFATYYCMQHLEYPFTFGGGTKLEIKR = 300
• H1-21G6 / L3-21G6 (Table 2, constant region not stated) (antibody, V domains shown, human kappa light chain; also called H1/L3) VH: QVQLVQSGAEVVKPGASVKLSCKASGYTFTSYYMYWVKQAPGQGLEWIGGINPSNGGTNFNEKFKSKATLTVDKSASTAYMELSSLRSEDTAVYYCTRWGYDREWFAYWGQGTLVTVSS VL: DIVMTQTPLSLSYTPGQPASISCRSSKSLLHSNGNTYLYWFLQKPGQSPQLLIYRMSNLASGVPDRFSGSGSGTDFTLKISRVEAEDVGVYYCMQHLEYPFTFGQGTKLEIKR = 1580
• H4-21G6 / L2-21G6 (Table 3B, constant region not stated) (antibody, V domains shown, human kappa light chain; also called H4/L2) VH: QVQLVQSGAEVKKPGASVKVSCKASGYTFTSYYMYWVRQAPGQGLEWMGGINPSNGGTNFNEKFKSRVTMTTDTSTSTAYMELRSLRSDDTAVYYCTRWGYDREWFAYWGQGTLVTVSS VL: DIVMTQSPLSLPVTPGEPASISCRSSKSLLHSNGNTYLYWFLQKPGQSPQLLIYRMSNLASGVPDRFSGSGSGTDFTLKISRVEAEDVGVYYCMQHLEYPFTFGQGTKLEIKR = 100
• Chimeric 21G6, human heavy chain constant region IgG4 (antibody, V domains shown, Human IgG4 constant region; also called CHIgG4 / Ch; ch21G6 IgG4) VH: QVQLQQPGAELVKPGASVKLSCKASGYTFTSYYMYWVKQRPGQGLEWIGGINPSNGGTNFNEKFKSKATLTVDKSSSTAYMQLSSLTSEDSAVYYCTRWGYDREWFAYWGQGTLVTVSA VL: DIVMTQAAPSVPVTPGESVSISCRSSKSLLHSNGNTYLYWFLQRPGQSPQVLIYRMSNLASGVPDRFSGSGSGTAFTLRISRVEAEDVGVYYCMQHLEYPFTFGSGTKLEIKR = 800
